A collection of compounds and their measured Activity
Test system: THP-1
assay details: Antiinflammatory activity in human THP1 cells assessed as inhibition of LPS-induced TNF-alpha release measured as TNF-alpha level at 15 uM after 4hrs by ELISA relative to control
Type: functional
The reply should contain only the number, in pg/mL.

Field: example entries. Status: answers known.
O=S(=O)([O-])O/N=C(\S[C@@H]1O[C@H](CO)[C@@H](O)[C@H](O)[C@H]1O)c1ccccc1.[K+] : 103.57
COc1ccc(/C(=N/OS(=O)(=O)[O-])S[C@@H]2O[C@H](CO)[C@@H](O)[C@H](O)[C@H]2O)cc1OC.[K+] : 69.2
O=S(=O)([O-])O/N=C(/CCc1ccccc1)S[C@@H]1O[C@H](CO)[C@@H](O)[C@H](O)[C@H]1O.[K+] : 74.76

State, in one line, measured Activity of O=S(=O)([O-])O/N=C(\S[C@@H]1O[C@H](CO)[C@@H](O)[C@H](O)[C@H]1O)c1cccc(Cl)c1Cl.[K+]
114.17

====

A collection of compounds and their measured Activity
Tested on: THP-1
assay details: Antiinflammatory activity in human THP1 cells assessed as inhibition of LPS-induced TNF-alpha release measured as TNF-alpha level at 15 uM after 4hrs by ELISA relative to control
Type: functional
The reply should contain only the number, in pg/mL.

O=S(=O)([O-])O/N=C(/Cc1ccccc1)S[C@@H]1O[C@H](CO)[C@@H](O)[C@H](O)[C@H]1O.[K+] : 201.87
O=S(=O)([O-])O/N=C(/C=C/c1ccccc1)S[C@@H]1O[C@H](CO)[C@@H](O)[C@H](O)[C@H]1O.[K+] : 79.23
O=S(=O)([O-])O/N=C(\S[C@@H]1O[C@H](CO)[C@@H](O)[C@H](O)[C@H]1O)c1ccc(Br)cc1.[K+] : 111.1

Lab note: next compound to report on.
State, in one line, measured Activity of Oc1cc(O)c2c(c1)OC(c1ccc(O)c(O)c1)C(O)C2 (centres undefined) [CATECHIN]
255.94
